# Test system: Aspergillus fumigatus
# Experimental Details: checkerboard drug interaction (FICI, MICc);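 also: simplified diagonal checkerboard screen pairing antifungals with FPPS inhibitors against Aspergillus fumigatus, with FICI calculated under the Loewe additivity model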
# Format: cell-based
# Setup Conditions: A. fumigatus; FLC:INH combination; fold decrease of inhibitor MIC
Metric Name: INH FD (MIC-MICc fold decrease)

Ask: Look up and report measured INH FD (MIC-MICc fold decrease) for this entry: CCCCCCCCCCN1CCC[C@H]1C(=O)N[C@@H](CC(=O)OC)C(=O)OC [dmPLA10]
Reply: 1

Ask: Look up and report measured INH FD (MIC-MICc fold decrease) for this entry: O=P(O)(O)C(O)(Cn1ccnc1)P(=O)(O)O [ZOL, zoledronate]
Reply: 4

Ask: Look up and report measured INH FD (MIC-MICc fold decrease) for this entry: CCCCCCCCCN1CCC[C@H]1C(=O)N[C@@H](CC(=O)OC)C(=O)OC [dmPLA9]
Reply: -2

Ask: Look up and report measured INH FD (MIC-MICc fold decrease) for this entry: CCCCCCCCCCCN1CCC[C@H]1C(=O)N[C@@H](CC(=O)O)C(=O)O [PLA11]
Reply: 1

Ask: Look up and report measured INH FD (MIC-MICc fold decrease) for this entry: CCCCCCCCCN1CCC[C@H]1C(=O)N[C@@H](CC(=O)O)C(=O)O [PLA9]
Reply: 1

###

Consider the following molecules; for each one, report its MIC / MEC.
# Test system: Candida dubliniensis
# Experimental Details: MIC broth microdilution (CLSI)
# Type: cell-based
# Setup Conditions: Candida dubliniensis M230642
Only the number, expressed in µg/mL, is required.

Ask: State MIC / MEC (Candida dubliniensis) of O=P(O)(O)C(O)(Cn1ccnc1)P(=O)(O)O [ZOL, zoledronate] .
Reply: 4

Ask: State MIC / MEC (Candida dubliniensis) of C[C@@H](c1ncncc1F)[C@](O)(Cn1cncn1)c1ccc(F)cc1F .
Reply: 0.06

Ask: State MIC / MEC (Candida dubliniensis) of CC(=O)N1CCN(c2ccc(OCC3COC(Cn4ccnc4)(c4ccc(Cl)cc4Cl)O3)cc2)CC1 (stereo not shown) .
Reply: 0.02

Ask: State MIC / MEC (Candida dubliniensis) of CCC(C)n1ncn(-c2ccc(N3CCN(c4ccc(OCC5COC(Cn6cncn6)(c6ccc(Cl)cc6Cl)O5)cc4)CC3)cc2)c1=O (stereo not shown) .
Reply: 0.13

###

# Tested on: Saccharomyces cerevisiae
# Experimental Details: checkerboard drug interaction (FICI, MICc)
# Type: cell-based
# Setup Conditions: S. cerevisiae; KET:INH combination; fold decrease of KET MIC
Consider the following compounds; for each one, report its KET FD (MIC-MICc fold decrease).
Note: the reply should be a number with no unit written.

Ask: State KET FD (MIC-MICc fold decrease) (Saccharomyces cerevisiae) of CCCCCCCCCCN1CCC[C@H]1C(=O)N[C@@H](CC(=O)OC)C(=O)OC .
Reply: 1

Ask: State KET FD (MIC-MICc fold decrease) (Saccharomyces cerevisiae) of CCCCCCCCCN1CCC[C@H]1C(=O)N[C@@H](CC(=O)OC)C(=O)OC .
Reply: 1

Ask: State KET FD (MIC-MICc fold decrease) (Saccharomyces cerevisiae) of CCCCCCCCCCCN1CCC[C@H]1C(=O)N[C@@H](CC(=O)O)C(=O)O .
Reply: 4

Ask: State KET FD (MIC-MICc fold decrease) (Saccharomyces cerevisiae) of CCCCCCCCCN1CCC[C@H]1C(=O)N[C@@H](CC(=O)O)C(=O)O .
Reply: 8

Ask: State KET FD (MIC-MICc fold decrease) (Saccharomyces cerevisiae) of O=P(O)(O)C(O)(Cn1ccnc1)P(=O)(O)O [ZOL, zoledronate] .
Reply: 8

###

# Tested on: Cryptococcus neoformans
# Experimental Details: MIC/MFC broth microdilution (CLSI);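 also: susceptibility testing followed the CLSI M27-Ed4 broth microdilution document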
# Setup Conditions: Cryptococcus neoformans H99
Metric Name: MIC / MEC (µg/mL)
Only the number, expressed in µg/mL, is required.

Ask: Look up and report measured MIC / MEC for this entry: C[C@@H]1[C@H](O)[C@@H](C)/C=C/C=C/C=C/C=C/C=C/C=C/C=C/[C@H](O[C@@H]2O[C@H](C)[C@@H](O)[C@H](N)[C@@H]2O)C[C@@H]2O[C@](O)(C[C@@H](O)C[C@@H](O)[C@H](O)CC[C@@H](O)C[C@@H](O)CC(=O)O[C@H]1C)C[C@H](O)[C@H]2C(=O)O
Reply: 0.25

Ask: Look up and report measured MIC / MEC for this entry: C[C@@H](c1ncncc1F)[C@](O)(Cn1cncn1)c1ccc(F)cc1F
Reply: 0.13

Ask: Look up and report measured MIC / MEC for this entry: OC(Cn1cncn1)(Cn1cncn1)c1ccc(F)cc1F
Reply: 4

Ask: Look up and report measured MIC / MEC for this entry: CCCCCCCCCCn1cc[n+](CC(O)(P(=O)(O)O)P(=O)(O)O)c1 [10-ZOL, Decyl-zoledronate]
Reply: 0.5

Ask: Look up and report measured MIC / MEC for this entry: CC[C@H](C)C[C@H](C)CCCCCCCCC(=O)N[C@H]1C[C@@H](O)[C@@H](NCCN)NC(=O)[C@@H]2[C@@H](O)CCN2C(=O)[C@H]([C@H](O)CCN)NC(=O)[C@H]([C@H](O)[C@@H](O)c2ccc(O)cc2)NC(=O)[C@@H]2C[C@@H](O)CN2C(=O)[C@H]([C@@H](C)O)NC1=O
Reply: 8

###

# System: Cryptococcus deuterogattii
# Experimental Details: checkerboard drug interaction (FICI, MICc);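 also: simplified diagonal checkerboard screen pairing antifungal drugs with FPPS inhibitors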
# Assay type: cell-based
# Setup Conditions: C. deuterogattii; ITR:INH combination
Consider the following molecules; for each one, report its FICI.
Note: the reply should be a number with no unit written.

Ask: Look up and report measured FICI for this entry: CCCCCCCCCCCN1CCC[C@H]1C(=O)N[C@@H](CC(=O)OC)C(=O)OC
Reply: 2

Ask: Look up and report measured FICI for this entry: CCCCCCCCCCCCN1CCC[C@H]1C(=O)N[C@H](CC(=O)OC)C(=O)OC
Reply: 0.38

Ask: Look up and report measured FICI for this entry: CCCCCCCCCN1CCC[C@H]1C(=O)N[C@H](CC(=O)OC)C(=O)OC
Reply: 1.25

Ask: Look up and report measured FICI for this entry: CCCCCCCCCCCCN1CCC[C@H]1C(=O)N[C@@H](CC(=O)OC)C(=O)OC
Reply: 0.63

Ask: Look up and report measured FICI for this entry: CCCCCCCCCCN1CCC[C@H]1C(=O)N[C@@H](CC(=O)OC)C(=O)OC
Reply: 0.5

Ask: Look up and report measured FICI for this entry: O=P(O)(O)C(O)(Cn1ccnc1)P(=O)(O)O [ZOL, zoledronate]
Reply: 0.38

Ask: Look up and report measured FICI for this entry: CCCCCCCCCCN1CCC[C@H]1C(=O)N[C@H](CC(=O)OC)C(=O)OC
Reply: 1.5

Ask: Look up and report measured FICI for this entry: CCCCCCCCCCCN1CCC[C@H]1C(=O)N[C@H](CC(=O)OC)C(=O)OC
Reply: 2

###

# System: Aspergillus terreus
# Experimental Details: checkerboard drug interaction (FICI, MICc);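 also: simplified diagonal checkerboard screen pairing antifungals with FPPS inhibitors, FICI derived by the Loewe additivity model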
# Assay type: cell-based
# Setup Conditions: in combination with 10-ZOL
Consider the following compounds; for each one, report its antifungal MICc.
Note: the reply should be a number with no unit written.

Ask: State antifungal MICc (Aspergillus terreus) of OC(Cn1cncn1)(Cn1cncn1)c1ccc(F)cc1F .
Reply: 2

Ask: State antifungal MICc (Aspergillus terreus) of CC(=O)N1CCN(c2ccc(OCC3COC(Cn4ccnc4)(c4ccc(Cl)cc4Cl)O3)cc2)CC1 (stereo not shown) .
Reply: 2

Ask: State antifungal MICc (Aspergillus terreus) of CC[C@H](C)C[C@H](C)CCCCCCCCC(=O)N[C@H]1C[C@@H](O)[C@@H](NCCN)NC(=O)[C@@H]2[C@@H](O)CCN2C(=O)[C@H]([C@H](O)CCN)NC(=O)[C@H]([C@H](O)[C@@H](O)c2ccc(O)cc2)NC(=O)[C@@H]2C[C@@H](O)CN2C(=O)[C@H]([C@@H](C)O)NC1=O .
Reply: 2

Ask: State antifungal MICc (Aspergillus terreus) of Nc1nc(=O)[nH]cc1F .
Reply: 64

Ask: State antifungal MICc (Aspergillus terreus) of CCC(C)n1ncn(-c2ccc(N3CCN(c4ccc(OCC5COC(Cn6cncn6)(c6ccc(Cl)cc6Cl)O5)cc4)CC3)cc2)c1=O (stereo not shown) .
Reply: 0.25

Ask: State antifungal MICc (Aspergillus terreus) of C[C@@H](c1ncncc1F)[C@](O)(Cn1cncn1)c1ccc(F)cc1F .
Reply: 0.25

Ask: State antifungal MICc (Aspergillus terreus) of C[C@@H]1[C@H](O)[C@@H](C)/C=C/C=C/C=C/C=C/C=C/C=C/C=C/[C@H](O[C@@H]2O[C@H](C)[C@@H](O)[C@H](N)[C@@H]2O)C[C@@H]2O[C@](O)(C[C@@H](O)C[C@@H](O)[C@H](O)CC[C@@H](O)C[C@@H](O)CC(=O)O[C@H]1C)C[C@H](O)[C@H]2C(=O)O .
Reply: 0.25

Numbers sourced from paper PMC12892976.
